Task for the reader: assign each of the following compounds its reported growth.
- Tested on: K-562 leukemia
- Assay procedure: NCI-60 one-dose screen, 48 h (100 = growth as untreated, 0 = no growth, -100 = all killed)
- Experimental setup: 10 µM unless noted
This is part of a sample that, as a whole, favours compounds with a hit. Of some 83,000 tested, about 20% had one in any assay.
Kindly answer with a numeric value in %, unit omitted.

Notebook: COC(=O)[C@@]1(C)CC[C@]2(C)CC[C@]3(C)C4=CC=C5C(=CC(=O)C(O)=C5C)[C@]4(C)CC[C@@]3(C)[C@@H]2C1 , growth read as -54.4

Per the records, this compound ( CCC(=O)Nc1ccc(Cl)c(Cl)c1 ) has growth equal to 97.6

Input CC[C@H](NC(=O)[C@H]1CCCCN1C)C(=O)N(C)[C@H](C[C@@H](OC(C)=O)c1nc(C(=O)N[C@@H](Cc2ccccc2)C[C@H](C)C(=O)O)cs1)C(C)C . Output growth: 6.94

According to the records, this compound O=[N+]([O-])c1cc([N+](=O)[O-])c(Cl)cc1Cl displays growth of -9.49

Quick note, growth for CC(=O)Oc1ccccc1C(=O)NCCC[Se]C#N landed at 30.2

----------
- Tested on: A549/ATCC NSCLC
- Assay procedure: NCI-60 one-dose screen, 48 h (100 = growth as untreated, 0 = no growth, -100 = all killed)
- Experimental setup: 10 µM unless noted
The panel holds about 83,000 compounds, 20% with a hit somewhere; the sample as a whole holds those more often.
Experimental endpoint: growth (%)
Write the value in % as a bare number.

# molecule CNC(=O)Oc1ccc(C(C)(C)C)cc1OC(=O)NC ; its growth = 90.5

// field: growth; key: C=C1[C@@H](C)[C@H]2[C@H](Cc3ccccc3)NC(=O)[C@]23[C@@H](O)/C=C/[C@@](C)(O)C(=O)[C@@H](C)C/C=C/[C@H]3[C@@H]1O ; value = 37.7

# molecule O=C(CC1(O)C(=O)Nc2ccccc21)c1ccc(C(=O)NCC2CCC3(CC2)OOC2(CCCCC2)OO3)cc1 (centres undefined) ; its growth = 57.9

Reported growth ( Cc1c(C)c([N+](=O)[O-])c(C)c(C)c1[N+](=O)[O-] ) = 91.5

----------
- Test system: A549/ATCC NSCLC
- Assay procedure: NCI-60 one-dose screen, 48 h
- Experimental setup: 10 µM unless noted
About 83,000 compounds went through this panel and 20% of them were active in at least one assay; those are over-represented in the sample as a whole. Activity calls are given as the source filed them. Rule for the calls: active = growth percent below 10; inactive = the rest.
Permitted responses: active, inactive

stdin: Could you check what this test reported for CC(=O)C(c1c(O)c2ccccc2oc1=O)c1cc(=O)oc2c1ccc1ccccc12 (centres undefined) ?
stdout: inactive

stdin: Just curious, what result did CCNc1nc(Cl)nc(NCC)n1 get here?
stdout: inactive

stdin: In this assay, the call recorded for CN1CC(CNC(=O)OCc2ccccc2)CC2c3cccc4c3c(cn4C)CC21 (centres undefined) was what?
stdout: inactive

stdin: Would you mind telling me which call this test gave Clc1cccc(N2COOC3(OOC2)C2CC4CC(C2)CC3C4)c1 ?
stdout: inactive

stdin: Please let me know the test result on file for O=[As](O)(O)c1ccccc1[As](=O)(O)O .
stdout: inactive

stdin: How was ClCCN(CCCl)c1nc(Cl)c(C2CC(c3ccccc3)=NN2c2cc(Cl)cc(Cl)c2)s1 (centres undefined) classified in this test?
stdout: inactive

stdin: What was the test verdict on Nc1ccc2c(c1)oc1ccccc12 ?
stdout: inactive

stdin: For CCC[CH2][Sn]([CH2]CCC)([CH2]CCC)[O]c1ccc(Cl)cc1Cl , what call appears in the results of this test?
stdout: active

stdin: Fill in: this test's call for O=[N+]([O-])c1cnc[nH]1 is ___
stdout: inactive

stdin: For this molecule, state the assay outcome: O=C(CCCCCCC(=O)Nc1ccc(N(CCCl)CCCl)cc1)NO
stdout: inactive

stdin: What outcome does the record of this test show for CCN(CC)CCOC(=O)C(OC(C)C)(c1ccccc1)c1ccccc1 ?
stdout: inactive

stdin: I would be grateful if you could indicate the recorded call for COC(=O)[C@@H](C)C[C@H](Cc1ccccc1)NC(=O)c1nc([C@@H](C[C@H](C(C)C)N(C)C(=O)[C@@H](NC(=O)[C@H]2CC(=O)CCN2C)C(C)C)OC(C)=O)sc1C(C)C .
stdout: inactive

stdin: Tell me the assay call for O=[N+]([O-])c1c(Br)sc(Br)c1[N+](=O)[O-] please.
stdout: inactive

stdin: Record lookup: outcome of this test for CCOP(=O)(Cc1ccc(C#N)cc1)OCC ?
stdout: inactive

stdin: Record request — test call for CC(=O)OC[C@]1(C)C=C2C(=O)[C@](C)(O)C3(CC3)C(C)=C2[C@H]1OC(=O)N(C)CCN(C)C(=O)OC(C)(C)C
stdout: active

stdin: Could you please tell me the result logged for COC(=O)[C@@H](C[C@H](Cc1ccccc1)NC(=O)c1csc([C@@H](C[C@H](C(C)C)N(C)C(=O)[C@@H](NC(=O)[C@H]2CCCCN2C)C(C)C)OC(C)=O)n1)NC(=O)OCc1ccccc1 in this assay?
stdout: inactive

stdin: Test call, this molecule: CC(C)[C@@H]1NC(=O)[C@]2(C)CSC(=N2)c2csc(n2)CNC(=O)C[C@@H](/C=C/CCS)OC1=O
stdout: active

stdin: What outcome does the record of this test show for CC(=O)O[C@H](C[C@H](C(C)C)N(C)C(=O)[C@@H](NC(=O)[C@H]1CCCCN1C)C(C)C)c1nc(C(=O)N[C@@H](Cc2ccccc2)C[C@H](C)C(=O)O)c(C(C)C)s1 ?
stdout: active

stdin: // param item: O=C1CNC(c2ccccc2)c2cc(Cl)ccc2N1 (centres undefined) ; yields the recorded call
stdout: inactive

----------
- Tested on: MDA-MB-231 breast
- Assay procedure: NCI-60 one-dose screen, 48 h (100 = growth as untreated, 0 = no growth, -100 = all killed)
- Experimental setup: 10 µM unless noted
This is part of a sample that, as a whole, favours compounds with a hit. Of some 83,000 tested, about 20% had one in any assay.
Record form. Attribute: growth. Fill in for each entry.
The reply should be a number in %, with the unit left off.

// recorded growth for COc1ccc([As]=[As]c2ccc(OC)c(NCS(=O)(=O)O)c2)cc1NCS(=O)(=O)O (stereo not given) : 4.41

growth for Cc1c(C)c([N+](=O)[O-])c(C)c(C)c1[N+](=O)[O-] is 108

Memo: COc1ccc(/C=C\c2cc(OC)c(OC)c(OC)c2)c(NS(=O)(=O)c2ccc(C)cc2)c1O , reported growth: 14.8

So, O=[N+]([O-])/C=C\c1ccc(Cl)c(Cl)c1 ? Its growth was 74.8

growth in this record for CCC[CH2][Sn]([CH2]CCC)([CH2]CCC)[O]c1ccc(Cl)cc1Cl : -78.2

----------
Can you tell me growth for the items I'm about to list?
- Test system: SW-620 colon
- Assay procedure: NCI-60 one-dose screen, 48 h (100 = growth as untreated, 0 = no growth, -100 = all killed)
- Experimental setup: 10 µM unless noted
This is part of a sample that, as a whole, favours compounds with a hit. Of some 83,000 tested, about 20% had one in any assay. Activity calls are given as the source filed them. Rule for the calls: active = growth percent below 10; inactive = the rest.

Quick note, growth for C=CCn1cc(C=C2C(=O)N(C)C(=O)N(C)C2=O)c2ccccc21 landed at 97.9% (inactive)

response.value for CC1=C(CCCNS(C)(=O)=O)C2=C(C)C3(CC3)[C@@](C)(O)C(=O)C2=C1 (field: growth) = 83.3% (inactive)

Form: molecule = COC(=O)[C@@H](C)C[C@H](Cc1ccccc1)NC(=O)c1csc([C@@H](C[C@H](C(C)C)N(C)C(=O)[C@@H](NC(=O)[C@H]2CCCCN2C)C2CC2)OC(C)=O)n1 ; growth = 48.4% (inactive)

Form field growth, entry O=C1NC(=O)C(=Cc2cccn2CCCCCn2c3ccccc3c(=O)c3ccccc32)C(=O)N1 : 105% (inactive)

So for O=C1CN=C(c2ccc(Cl)cc2)c2sccc2N1 , the logged growth turned out to be 110% (inactive)

response.value for CC(=O)O[C@H](C[C@H](C(C)C)N(C)C(=O)[C@@H](NC(=O)[C@H]1CCCCN1C)C(C)C)c1nc(C(=O)N[C@@H](Cc2ccccc2)C[C@H](C)C(=O)O)c(C(C)C)s1 (field: growth) = 27.3% (inactive)

Value of growth reported for the molecule Nc1nnnc2nc[nH]c12 is 11% (inactive)

Record Nc1nc([Se])c2ncn(C3OC(CO)C(O)C3O)c2n1 (stereo not drawn) , field growth: 82.1% (inactive)

Reported growth for N#C[S-].[Au+].c1ccc(CN2[CH-]N(Cc3ccccc3)C(c3ccccc3)=C2c2ccccc2)cc1 was 17.9% (inactive)

Documented growth of c1ccc(Nc2nc(-c3ccccc3)c[se]2)cc1 : 98.8% (inactive)

Measured growth of O=[N+]([O-])c1cnc[nH]1 : 104% (inactive)

// sample CCOc1ccccc1C(=O)OCC(Cl)(Cl)Cl , its growth was 110% (inactive)

Reported growth ( COc1ccc(Nc2ccc([N+](=O)[O-])cc2[N+](=O)[O-])cc1CN(CCCl)CCCl ) = 20.3% (inactive)

Notebook: C[C@]12CCc3sc(-c4ccccc4O)nc3C1=CC[C@@H]1[C@@H]2CC[C@]2(C)C(=O)CC[C@@H]12 , growth read as 103% (inactive)

Entry COC(=O)[C@@H](C)C[C@H](Cc1cn(C)c2ccccc12)NC(=O)c1csc([C@@H](C[C@H](C(C)C)N(C)C(=O)[C@@H](NC(=O)[C@H]2CCCCN2C)C(C)C)OC(C)=O)n1 , growth reported as 26.8% (inactive)

The reported growth of the molecule O=C(N/N=C\c1ccc(N(CCCl)CCCl)cc1Cl)c1cccnc1 was 79.2% (inactive)

So, CN1C(=O)N[C@H]2[C@@H]3NC(=O)c4ccc(Br)n4[C@@H]3C[C@]21O ? Its growth was -4.51% (active)

Per the records, this molecule ( COC(=O)[C@@H](C)C[C@H](Cc1ccccc1)NC(=O)c1nc([C@@H](C[C@H](C(C)C)N(C)C(=O)[C@@H](NC(=O)[C@H]2CCCCN2C)C(C)C)OC(C)=O)sc1C(C)C ) has growth equal to 24.9% (inactive)

The reported value for C[C@@H]1O[C@@H](O[C@H]2C[C@@H](O)[C@]3(CO)C4C(CC[C@]3(O)C2)[C@@]2(O)CC[C@H](C3=CC(=O)OC3)[C@@]2(C)C[C@H]4O)[C@H](O)[C@H](O)[C@H]1O (stereo partly drawn) in terms of growth is -76.9% (active)

Documented growth of O=C1NC(=O)C(=Cc2ccc(OCCCCC3CCCCC3)c(Cl)c2)C(=O)N1 : 98% (inactive)

The molecule identified as COc1cc2c(cc1OCCCn1c(-c3ccccn3)nc3ccccc31)N=C[C@@H]1CCCN1C2=O registered its growth at 0.272% (active)

The value of growth measured for the molecule COC[C@@H]1C[C@@]2(C)[C@@H](CC[C@@H]3[C@@H]2CC[C@@]2(C)[C@H]3CC[C@]2(C)O)CC1=O turned out to be 110% (inactive)

For record O=P(N1CC1)(N1CC1)N1CCc2ccccc21 the listed growth is 101% (inactive)

The recorded growth for entry Cc1ccc(C(=O)NCCCOc2ccc(N3C(N)=NC(N)=NC3(C)C)cc2Cl)cc1S(=O)(=O)F equals 65.1% (inactive)

Form: molecule = CCCC[C@H](NC(=O)[C@H]1CCCN1C)C(=O)N(C)[C@H](C[C@@H](OC(C)=O)c1nc(C(=O)N[C@@H](Cc2ccccc2)C[C@H](C)C(=O)OCC)cs1)C(C)C ; growth = 22.1% (inactive)

Value of growth reported for the molecule COC(=O)[C@@H](C)C[C@H](Cc1ccccc1)NC(=O)c1nc([C@@H](C[C@H](C(C)C)N(C)C(=O)[C@@H](NC(=O)[C@H]2CCCN2C)C(C)C)OC(C)=O)sc1C is 20.1% (inactive)

growth reading for CC(=O)O[C@H]1CC[C@H]2[C@@H]3CC=C4c5nc(-c6ccccc6)sc5CC[C@]4(C)[C@H]3CC[C@]12C : 55% (inactive)

Input CN1C(=O)C23CC4(C56CC78SSC(CO)(C(=O)N7C5Nc5ccccc56)N(C)C8=O)c5ccccc5NC4N2C(=O)C1(CO)SS3 (stereo not drawn) . Output growth: -78.5% (active)

The reported growth of the molecule O=C(Nc1ccc(Cl)cc1)Nc1nccs1 was 26.4% (inactive)

Given item Cc1ccc(C(=O)NCCCOc2ccc(N)cc2Cl)cc1S(=O)(=O)F , the value recorded as its growth is 104% (inactive)

Quick note, growth for C/C1=C/C(=O)O[C@@H]2C[C@@H](CC[C@H](C)/C=C\C=C\CC1)O[C@@](O)([C@@H]1CSC(=O)N1CO)C2 landed at 53.2% (inactive)

The recorded growth for COC(=O)[C@@]1(C)CC[C@]2(C)CC[C@]3(C)C4=CC=C5C(=CC(=O)C(O)=C5C)[C@]4(C)CC[C@@]3(C)[C@@H]2C1 is -83% (active)

The measured growth associated with CCOC(=O)CCN(C)C1=Nc2ccc(Cl)cc2C(c2ccccc2)=[N+]([O-])C1 reads 104% (inactive)
